Task for the reader: assign each of the following compounds its reported pIC50.
- Experimental System: CDK5/p25 (Homo sapiens, UniProt Q00535)
- Sequence (Q00535 whole entry): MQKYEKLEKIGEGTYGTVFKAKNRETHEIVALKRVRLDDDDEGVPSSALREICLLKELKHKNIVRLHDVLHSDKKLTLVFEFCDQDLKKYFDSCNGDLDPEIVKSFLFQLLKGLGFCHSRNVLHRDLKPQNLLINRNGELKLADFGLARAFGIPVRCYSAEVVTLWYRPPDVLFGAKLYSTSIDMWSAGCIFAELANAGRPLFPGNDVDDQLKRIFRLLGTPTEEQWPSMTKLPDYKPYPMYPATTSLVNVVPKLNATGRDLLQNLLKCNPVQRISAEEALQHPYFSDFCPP
- Sequence (Q15078 99-307 partner limits assumed): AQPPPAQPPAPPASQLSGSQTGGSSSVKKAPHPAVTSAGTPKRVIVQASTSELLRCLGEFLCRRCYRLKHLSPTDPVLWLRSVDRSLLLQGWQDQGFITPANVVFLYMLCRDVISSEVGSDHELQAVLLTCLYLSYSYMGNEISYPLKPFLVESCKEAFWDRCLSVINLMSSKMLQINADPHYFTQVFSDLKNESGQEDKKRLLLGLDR
- Assay Protocol: CDK5 mobility shift assay (enzymatic activity of CDK5/p25)
- Format: biochemical
- Settings: 0.154 nM CDK5/p25, FL peptide 29, 60 min at room temperature; read-out: CDK5 IC50
pIC50: −log10 of the molar value.

The recorded pIC50 for entry CCC(O)(c1ccc2cnc(Nc3ccc(-n4cccn4)cc3F)cc2n1)C1CCN(C)CC1 (centres unmarked) [Compound 392] equals 7.00 to 8.00

// field: pIC50; key: CN1CCC(S(=O)(=O)c2ccc3cnc(Nc4ccc(C(C)(C)C)cc4)cc3n2)CC1 [Compound 295] ; value = > 8.00

Given item CN1CCC(S(=O)(=O)c2ccc3cnc(Nc4ccc(-c5ccc(F)cc5)cc4F)cc3n2)CC1 [Compound 183] , the value recorded as its pIC50 is > 8.00

GET /value?item= CC(C)N1CCC(S(=O)(=O)c2ccc3cnc(Nc4ccc(-n5cccn5)cc4F)cc3n2)CC1 [Compound 380] &field=pIC50 returns 7.00 to 8.00

pIC50 reading for C=C(c1ccc2cnc(Nc3ccc(-n4ccc(CO)n4)cc3F)cc2n1)C1CCNCC1 [Compound 139] : > 8.00

The reported pIC50 of the compound CN1CCC(S(=O)(=O)c2ccc3cnc(Nc4ccc(N5CCC(O)CC5)cc4)cc3n2)CC1 [Compound 304] was > 8.00

pIC50 recorded for this compound, OCc1ccn(-c2ccc(Nc3cc4nc(N(Cc5cn[nH]c5)C5CCNCC5)ccc4cn3)c(F)c2)n1 [Compound 287] , is 7.00 to 8.00

Memo: CCC(c1ccc2cnc(Nc3ccc(-n4ccc(CO)n4)cc3F)cc2n1)C1CCN(C)CC1 (centres unmarked) [Compound 246] , reported pIC50: 6.00 to 7.00

---

I'd appreciate it if you could supply pIC50 values for the items below.
- Experimental System: CDK5/p25 (Homo sapiens, UniProt Q00535)
- Assay Protocol: CDK5 mobility shift assay (enzymatic activity of CDK5/p25)
- Format: biochemical
- Settings: 0.154 nM CDK5/p25, FL peptide 29, 60 min at room temperature; read-out: CDK5 IC50
- Procedure: Compound potency was measured via a change in the enzymatic activity of CDK5/p25, and optionally of CDK2/CycA2. Enzymes, CDK5/p25 and CDK2/CycA2, were sourced from Carna Biosciences (Cat #04-106 and 04-103, respectively). Test compound stocks were diluted in 100% DMSO and serially diluted 3-fold in a 384-well plate using a TECAN EVO200 (TECAN). […] The CDK5/p25 reaction was incubated at room temperature for 60 min. […] Samples were analyzed using the EZ Reader (Perkin Elmer). […]
pIC50: −log10 of the molar value.

For OCCN1CCC(C(O)c2ccc3cnc(Nc4ccc(-n5ccc(CO)n5)cc4F)cc3n2)CC1 (single isomer, unassigned) [Compound 255] the molecule record lists pIC50 as 6.00 to 7.00

Recorded pIC50 (molecule `O=S(=O)(c1ccc2cnc(Nc3ccc(-c4cccnc4)cc3F)cc2n1)C1CCN(CC2COC2)CC1` ): > 8.00

Query `O=S(=O)(c1ccc2cnc(Nc3ccc(-n4cccn4)cc3F)cc2n1)C1CCN(CC2COC2)CC1` yields pIC50 of > 8.00

Reported pIC50 ( `CN1CCC(S(=O)(=O)c2ccc3cnc(Nc4ccc(N5CCNC(=O)C5)cc4)cc3n2)CC1` ) = > 8.00

Sample `CN1CCC(S(=O)(=O)c2ccc3cnc(Nc4cccc(N5CCCC5=O)c4)cc3n2)CC1` ; pIC50 observed: > 8.00

Record `CN1CCC(S(=O)(=O)c2ccc3cnc(Nc4ccc(S(C)(=O)=O)cc4)cc3n2)CC1` . Reported pIC50: > 8.00

The reported pIC50 of the molecule CN1CCC(C(C)(O)c2ccc3cnc(Nc4ccc(-c5ccc(=O)n(C)c5)cc4F)cc3n2)CC1 (stereo not shown) [Compound 346] was 6.00 to 7.00

---

Kindly supply the reported pIC50 values for the records listed here.
- Experimental System: CDK5/p25 (Homo sapiens)
- Assay Protocol: CDK5 mobility shift assay (enzymatic activity of CDK5/p25)
- Assay type: biochemical
- Settings: 0.154 nM CDK5/p25, FL peptide 29, 60 min at room temperature; read-out: CDK5 IC50
pIC50: −log10 of the molar value.

The compound listed as `CN1CCC(S(=O)(=O)c2ccc3cnc(Nc4ccon4)cc3n2)CC1` has a reported pIC50 of 7.00 to 8.00

Lab book: pIC50 of CC(c1ccc2cnc(Nc3ccc(-n4cccn4)cc3F)cc2n1)C1CCN(C)CC1 (stereo not drawn) noted as > 8.00

# pIC50 of CN1CCC(C(C)(O)c2ccc3cnc(Nc4ccc(-n5ccc(C#N)n5)cc4F)cc3n2)CC1 (stereo not drawn) = > 8.00

So, `CN1CCC(S(=O)(=O)c2ccc3cnc(Nc4ccc5c(c4)C(=O)N(C)C5)cc3n2)CC1` ? Its pIC50 was 7.00 to 8.00

Query CN1CCC(C(C)(O)c2ccc3cnc(Nc4ccc(-c5ccc(C#N)cn5)cc4F)cc3n2)CC1 (stereo not drawn) yields pIC50 of > 8.00

// pIC50 lookup, compound = `CN1CCC(S(=O)(=O)c2ccc3cnc(Nc4ccc(-n5ccc(C(=O)O)n5)cc4F)cc3n2)CC1` , result: > 8.00

Briefly, pIC50 measured for `CC(C)(O)c1ccn(-c2ccc(Nc3cc4nc(S(=O)(=O)C5CCN(CC6COC6)CC5)ccc4cn3)c(F)c2)n1` : 7.00 to 8.00

Kindly note the recorded pIC50 for `Fc1cc(-n2cccn2)ccc1Nc1cc2nc(C=C3CCNCC3)ccc2cn1` , which is 7.00 to 8.00

Just so you know, measured pIC50 for `CN1CCC(S(=O)(=O)c2ccc3cnc(Nc4cccc(N5CCOC5=O)c4)cc3n2)CC1` came out at > 8.00

pIC50 for `COc1cccc(-c2ccc(Nc3cc4nc(S(=O)(=O)C5CCN(CC6COC6)CC5)ccc4cn3)c(F)c2)n1` is > 8.00

Reported pIC50 for N#Cc1cccc(-c2ccc(Nc3cc4nc(C(O)C5CCN(CCO)CC5)ccc4cn3)c(F)c2)c1 (single isomer, unassigned) [Compound 250] was > 8.00

# compound CN1CCC(NS(=O)(=O)c2ccc3cnc(Nc4ccc(-n5ccc(CO)n5)cc4F)cc3n2)C1 (stereo not drawn) ; its pIC50 = 7.00 to 8.00

Lab note: `CN(C)C(=O)c1ccn(-c2ccc(Nc3cc4nc(S(=O)(=O)C5CCN(CC6COC6)CC5)ccc4cn3)c(F)c2)n1` gave pIC50 of > 8.00

Per the record, OC(c1ccc2cnc(Nc3ccc(-n4cccn4)cc3F)cc2n1)C1CCNCC1 (stereo not drawn) has pIC50 of 7.00 to 8.00

Reported pIC50 for `CNC(=O)c1ccc(Nc2cc3nc(S(=O)(=O)C4CCN(C)CC4)ccc3cn2)cc1` was > 8.00

Reported pIC50 of `Cc1cccc(Nc2cc3nc(S(=O)(=O)C4CCN(C)CC4)ccc3cn2)c1` : > 8.00

Per the record, `CN1CCC(S(=O)(=O)c2ccc3cnc(Nc4ccc(-c5cccn(C)c5=O)cc4F)cc3n2)CC1` has pIC50 of 7.00 to 8.00

Briefly, pIC50 measured for CN1CCC(C(O)(c2ccc3cnc(Nc4ccc(-n5cccn5)cc4F)cc3n2)C(F)(F)F)CC1 (single isomer, unassigned) [Compound 349] : > 8.00

Quick note, pIC50 for CN1CCC(C(O)(c2ccc3cnc(Nc4ccc(-n5cccn5)cc4F)cc3n2)C(F)(F)F)CC1 (single isomer, unassigned) [Compound 343] landed at 6.00 to 7.00

compound CN1CCC(C(C)(O)c2ccc3cnc(Nc4ccc(-c5cccn(C)c5=O)cc4F)cc3n2)CC1 (stereo not drawn) , pIC50 observed: > 8.00

Record `OCCN1CCC(Sc2ccc3cnc(Nc4ccc(-n5ccc(CO)n5)cc4F)cc3n2)CC1` , field pIC50: > 8.00

`CN1CCC(S(=O)(=O)c2ccc3cnc(Nc4cccc(C#CC(C)(C)O)c4)cc3n2)CC1` has a reported pIC50 of > 8.00

# compound CN1CCC(C(C)(O)c2ccc3cnc(Nc4ccc(-c5cccc(C#N)c5)cc4F)cc3n2)CC1 (stereo not drawn) [Compound 335] ; its pIC50 = > 8.00

pIC50 in this record for `COC(=O)CCc1nnc(Nc2cc3nc(S(=O)(=O)C4CCN(C)CC4)ccc3cn2)s1` : < 6.00

So, O=S(=O)(c1ccc2cnc(Nc3ccc(-n4ccc(CO)n4)cc3F)cc2n1)C1CCN(CC(O)CO)CC1 (stereo not drawn) [Compound 249] ? Its pIC50 was > 8.00

Kindly note the recorded pIC50 for `Fc1cc(-n2cccn2)ccc1Nc1cc2nc(SC3CCNCC3)ccc2cn1` , which is > 8.00

Record summary for CC(O)(c1ccc2cnc(Nc3ccc(-n4cccn4)cc3F)cc2n1)C1CCNCC1 (stereo not drawn) : reported pIC50 = > 8.00

For record O=C(O)[C@@H]1CNCC[C@@H]1Nc1ccc2cnc(Nc3ccc(-n4ccc(CO)n4)cc3F)cc2n1 (relative stereo) the listed pIC50 is 6.00 to 7.00

Recorded result, `Cc1cc(C(=O)NC(C)C)ccc1Nc1cc2nc(S(=O)(=O)C3CCN(C)CC3)ccc2cn1` , pIC50: 7.00 to 8.00

Value of pIC50 reported for the compound `CCN1CCC(N(CC(=O)O)c2ccc3cnc(Nc4ccc(-n5ccc(CO)n5)cc4F)cc3n2)CC1` is > 8.00
